Please go through the items and note down their protein stability index.
assay: protein stability index of a GFP-peptide fusion (yeast GPS) (PSI 1-4); higher = more stable; sorted into four equal gates, so the index is relative within each strain; conditions: pdr5∆
Number only, please.

Req: State the recorded protein stability index for this entry: PFKGEVVDGTVVSCSQH [RPB7]
Resp: 3.08

Req: State the recorded protein stability index for this entry: DSPFSLICQNNLNAFVD [SRP72]
Resp: 3

Req: State the recorded protein stability index for this entry: SPMGNAYSMGAQNQGGQ [PGD1]
Resp: 2.91

Req: State the recorded protein stability index for this entry: DYINELSNSNRFELHGD [REC8]
Resp: 3.08

Req: State the recorded protein stability index for this entry: AGEFGLKNKKEIYRISF [RPS9A]
Resp: 2.95

Req: State the recorded protein stability index for this entry: KNKPELYQIDYLGTKVE [PRE1]
Resp: 2.95

Req: State the recorded protein stability index for this entry: ATDVEARAVQDNGESAF [RPL13A]
Resp: 2.99

Req: State the recorded protein stability index for this entry: PHANPITHAHSLSNPNS [PGD1]
Resp: 2.99

Req: State the recorded protein stability index for this entry: TIQYDPPETKLPYPTYW [SNF5]
Resp: 2.93

Req: State the recorded protein stability index for this entry: IVHDDPASDDILDNINH [ITC1]
Resp: 3.02
